# protocol-notes: Biodistribution study in LNCaP tumor-bearing mice (Th227 counted in organs)
# Type: in vivo, SCID mice
# assay-setup: 0.25 h; 1500 kBq/kg
readout-kind: Th-227 in prostate (% ID Th-227/g organ)
// note: answer is a bare numeric in % ID Th-227/g organ

Given the molecule O=C([O-])CN1CCN(CC(=O)[O-])CCN(CC(=O)NCC2CCC(C(=O)NC(Cc3ccc4ccccc4c3)C(=O)NCCCCC(NC(=O)NC(CCC(=O)O)C(=O)O)C(=O)O)CC2)CCN(CC(=O)[O-])CC1.[227Th+4] [Example 1-B-D-227Th] , what is its reported Th-227 in prostate? 6.26

* * *

# protocol-notes: Biodistribution study in LNCaP tumor-bearing mice (Th227 counted in organs)
# Type: in vivo, SCID mice
# assay-setup: 96 h; 1500 kBq/kg
readout-kind: Th-227 in lung (% ID Th-227/g organ)
// note: answer is a bare numeric in % ID Th-227/g organ

Given the molecule O=C([O-])CN1CCN(CC(=O)[O-])CCN(CC(=O)NCC2CCC(C(=O)NC(Cc3ccc4ccccc4c3)C(=O)NCCCCC(NC(=O)NC(CCC(=O)O)C(=O)O)C(=O)O)CC2)CCN(CC(=O)[O-])CC1.[227Th+4] [Example 1-B-D-227Th] , what is its reported Th-227 in lung? 0.14

Given the molecule Cc1cc(C(=O)NCCN(CCCN(CCNC(=O)c2cc(C)n(CC(=O)O)c(=O)c2[O-])CCNC(=O)c2cc(C)n(CC(=O)NCC3CCC(C(=O)NC(Cc4cnc5ccccc5c4)C(=O)NCCCCC(NC(=O)NC(CCC(=O)O)C(=O)O)C(=O)O)CC3)c(=O)c2[O-])CCNC(=O)c2cc(C)n(CC(=O)NCC3CCC(C(=O)NC(Cc4cnc5ccccc5c4)C(=O)NCCCCC(NC(=O)NC(CCC(=O)O)C(=O)O)C(=O)O)CC3)c(=O)c2[O-])c([O-])c(=O)n1CC(=O)O.[227Th+4] (stereo not shown) [Example 22-C dimer-227Th] , what is its reported Th-227 in lung? 0.16

Given the molecule O=C([O-])CN1CCN(CC(=O)[O-])CCN(CC(=O)NCC2CCC(C(=O)NC(Cc3ccc4ccccc4c3)C(=O)NCCCCC(NC(=O)NC(CCC(=O)O)C(=O)O)C(=O)O)CC2)CCN(CC(=O)[O-])CC1.[227Th+4] (stereo not shown) [Example 1-B-227Th] , what is its reported Th-227 in lung? 0.55

Given the molecule O=C([O-])CN1CCN(CC(=O)[O-])CCN(CC(=O)NCc2ccc(C(=O)N[C@@H](Cc3ccc4ccccc4n3)C(=O)NCCCC[C@H](NC(=O)N[C@@H](CCC(=O)O)C(=O)O)C(=O)O)nc2)CCN(CC(=O)[O-])CC1.[227Th+4] [Example 34-B-227Th] , what is its reported Th-227 in lung? 0.13

* * *

# protocol-notes: Biodistribution study in LNCaP tumor-bearing mice (Th227 counted in organs)
# Assay type: in vivo, SCID mice
# assay-setup: 1 hr; 1500 kBq/kg
readout-kind: Th-227 in Blood (% ID Th-227/g organ)
// note: answer is a bare numeric in % ID Th-227/g organ

Given the compound O=C([O-])CN1CCN(CC(=O)[O-])CCN(CC(=O)NCc2ccc(C(=O)N[C@@H](Cc3ccc4ccccc4n3)C(=O)NCCCC[C@H](NC(=O)N[C@@H](CCC(=O)O)C(=O)O)C(=O)O)nc2)CCN(CC(=O)[O-])CC1.[227Th+4] [Example 34-B-227Th] , what is its reported Th-227 in Blood? 0.58

* * *

# subject-of-test: PSMA-expressing LNCaP cells (Homo sapiens)
# Construct: PSMA-expressing LNCaP cells; endogenous in cells; host or cells: LNCaP
# Sequence (Q04609 whole entry): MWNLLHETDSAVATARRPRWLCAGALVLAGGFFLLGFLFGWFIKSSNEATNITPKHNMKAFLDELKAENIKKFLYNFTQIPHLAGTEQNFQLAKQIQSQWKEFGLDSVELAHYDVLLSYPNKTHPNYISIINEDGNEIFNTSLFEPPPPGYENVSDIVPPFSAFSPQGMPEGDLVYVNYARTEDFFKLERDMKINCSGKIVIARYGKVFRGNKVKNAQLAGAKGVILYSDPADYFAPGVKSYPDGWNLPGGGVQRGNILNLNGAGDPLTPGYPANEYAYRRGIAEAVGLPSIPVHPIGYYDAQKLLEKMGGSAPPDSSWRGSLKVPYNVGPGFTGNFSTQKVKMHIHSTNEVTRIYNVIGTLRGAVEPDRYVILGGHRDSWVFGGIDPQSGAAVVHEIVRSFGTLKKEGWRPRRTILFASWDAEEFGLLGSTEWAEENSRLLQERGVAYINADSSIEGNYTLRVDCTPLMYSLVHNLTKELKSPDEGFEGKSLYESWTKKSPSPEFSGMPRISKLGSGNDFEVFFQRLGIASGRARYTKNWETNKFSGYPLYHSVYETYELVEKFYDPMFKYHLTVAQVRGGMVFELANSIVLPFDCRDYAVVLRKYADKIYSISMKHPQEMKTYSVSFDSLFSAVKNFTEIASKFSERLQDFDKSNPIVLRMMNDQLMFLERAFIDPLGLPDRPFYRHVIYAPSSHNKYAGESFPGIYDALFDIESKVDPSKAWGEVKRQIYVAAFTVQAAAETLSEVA
# protocol-notes: Binding competition assay against 3H-PSMA-617 on LNCaP cells
# assay-setup: LNCaP cells; 10 nM 3H-PSMA-617; competing non-radiolabeled compound 10 nM; 2 h at 37° C.; triplicates
Please respond with reported remaining activity at 0.01 µM for every item in the list.
// note: answer is a bare numeric in %

Given the compound NC[C@H]1CC[C@H](C(=O)N[C@@H](Cc2ccc(C3CCC3)cc2)C(=O)NCCCC[C@H](NC(=O)N[C@@H](CCC(=O)O)C(=O)O)C(=O)O)CC1 , what is its reported remaining activity at 0.01 µM? 78

Given the compound CNc1cc2ccccc2cc1C[C@@H](NC(=O)[C@H]1CC[C@H](CNC(=O)CN2CCN(CC(=O)O)CCN(CC(=O)O)CCN(CC(=O)O)CC2)CC1)C(=O)NCCCC[C@H](NC(=O)N[C@@H](CCC(=O)O)C(=O)O)C(=O)O , what is its reported remaining activity at 0.01 µM? 81

Given the compound O=C(O)CC[C@H](NC(=O)N[C@@H](CCCCNC(=O)[C@H](Cc1ccc2ccccc2c1)NC(=O)NCC1CCNCC1)C(=O)O)C(=O)O , what is its reported remaining activity at 0.01 µM? 136

Given the compound O=C(O)CC[C@H](NC(=O)N[C@@H](CCCCNC(=O)[C@H](Cc1ccc2ccccc2c1)NC(=O)[C@H]1CC[C@H](CNC(=S)Nc2ccc(CC(CN(CCNC(=O)c3ccn(CCO)c(=O)c3O)CCNC(=O)c3ccn(CCO)c(=O)c3O)CN(CCNC(=O)c3ccn(CCO)c(=O)c3O)CCNC(=O)c3ccn(CCO)c(=O)c3O)cc2)CC1)C(=O)O)C(=O)O , what is its reported remaining activity at 0.01 µM? 71

Given the compound NC[C@H]1CC[C@H](C(=O)N[C@@H](CCCNC(=O)c2cnccn2)C(=O)NCCCC[C@H](NC(=O)N[C@@H](CCC(=O)O)C(=O)O)C(=O)O)CC1 , what is its reported remaining activity at 0.01 µM? 88

Given the compound NCc1ccc(C(=O)N[C@@H](Cc2ccc3ccccc3c2)C(=O)NCCCC[C@H](NC(=O)N[C@@H](CCC(=O)O)C(=O)O)C(=O)O)cn1 , what is its reported remaining activity at 0.01 µM? 33

Given the compound O=C(O)CC[C@H](NC(=O)N[C@@H](CCCCNC(=O)[C@@H](Cc1ccc2ccncc2c1)NC(=O)[C@H]1CC[C@H](CNC(=O)CN2CCN(CC(=O)O)CCN(CC(=O)O)CCN(CC(=O)O)CC2)CC1)C(=O)O)C(=O)O , what is its reported remaining activity at 0.01 µM? 88

Given the compound NCc1cccc(C(=O)N[C@@H](Cc2ccc3ccccc3c2)C(=O)NCCCC[C@H](NC(=O)N[C@@H](CCC(=O)O)C(=O)O)C(=O)O)c1 , what is its reported remaining activity at 0.01 µM? 27

Given the compound NC[C@H]1CC[C@H](C(=O)N[C@@H](Cc2cnc3ccccc3c2)C(=O)NCCCC[C@H](NC(=O)N[C@@H](CCC(=O)O)C(=O)O)C(=O)O)CC1 , what is its reported remaining activity at 0.01 µM? 113

Given the compound Nc1ccc(-c2ccn(CC(=O)N[C@@H](Cc3ccc4ccccc4c3)C(=O)NCCCC[C@H](NC(=O)N[C@@H](CCC(=O)O)C(=O)O)C(=O)O)n2)cc1 , what is its reported remaining activity at 0.01 µM? 107

Given the compound O=C(O)CC[C@@H](NC(=O)N[C@@H](CCCCNC(=O)[C@H](Cc1ccc2ccccc2c1)NC(=O)[C@H]1CC[C@H](CNC(=O)CN2CCN(CC(=O)O)CCN(CC(=O)O)CCN(CC(=O)O)CC2)CC1)C(=O)O)C(=O)O , what is its reported remaining activity at 0.01 µM? 80

Given the compound NC[C@H]1CC[C@H](C(=O)N[C@H](Cc2ccc3cnccc3c2)C(=O)NCCCC[C@H](NC(=O)N[C@@H](CCC(=O)O)C(=O)O)C(=O)O)CC1 , what is its reported remaining activity at 0.01 µM? 85

Given the compound COc1c(C[C@@H](NC(=O)[C@H]2CC[C@H](CNC(=O)CN3CCN(CC(=O)O)CCN(CC(=O)O)CCN(CC(=O)O)CC3)CC2)C(=O)NCCCC[C@H](NC(=O)N[C@@H](CCC(=O)O)C(=O)O)C(=O)O)ccc2ccccc12 , what is its reported remaining activity at 0.01 µM? 114

Given the compound O=C(O)CC[C@H](NC(=O)N[C@@H](CCCCNC(=O)[C@H](Cc1cc2ccccc2cn1)NC(=O)[C@H]1CC[C@H](CNC(=O)CN2CCN(CC(=O)O)CCN(CC(=O)O)CCN(CC(=O)O)CC2)CC1)C(=O)O)C(=O)O , what is its reported remaining activity at 0.01 µM? 92

Given the compound O=C(O)CC[C@H](NC(=O)N[C@@H](CCCCNC(=O)[C@H](Cc1ccc2ccccc2c1)NC(=O)Cn1ccc(-c2ccc(NC(=O)CN3CCN(CC(=O)O)CCN(CC(=O)O)CCN(CC(=O)O)CC3)cc2)n1)C(=O)O)C(=O)O , what is its reported remaining activity at 0.01 µM? 33

Given the compound NC[C@H]1CC[C@H](C(=O)N[C@@H](CCCc2ccccc2)C(=O)NCCCC[C@H](NC(=O)N[C@@H](CCC(=O)O)C(=O)O)C(=O)O)CC1 , what is its reported remaining activity at 0.01 µM? 100

Given the compound O=C(O)CC[C@H](NC(=O)N[C@@H](CCCCNC(=O)[C@H](Cc1ccc2ccccc2c1)NC(=O)c1cccc(CNC(=O)CN2CCN(CC(=O)O)CCN(CC(=O)O)CCN(CC(=O)O)CC2)c1)C(=O)O)C(=O)O , what is its reported remaining activity at 0.01 µM? 54

Given the compound NC[C@H]1CC[C@H](C(=O)N[C@@H](Cc2cccc(S(F)(F)(F)(F)F)c2)C(=O)NCCCC[C@H](NC(=O)N[C@@H](CCC(=O)O)C(=O)O)C(=O)O)CC1 , what is its reported remaining activity at 0.01 µM? 79

Given the compound NC[C@H]1CC[C@H](C(=O)N[C@H](Cc2csc3ccc(Cl)cc23)C(=O)NCCCC[C@H](NC(=O)N[C@@H](CCC(=O)O)C(=O)O)C(=O)O)CC1 , what is its reported remaining activity at 0.01 µM? 82
